tested on: COLO 205 colon; test: NCI-60 one-dose screen, 48 h; conditions: 10 µM unless noted
Compounds without any hit were thinned out: in the full panel of roughly 83,000, 20% have a hit. Activity calls are given as the source filed them. How the source made its calls: active means growth percent below 10; inactive means the rest.
Give one outcome, nothing more. List: True = active, False = inactive

Query: Record lookup: outcome of this test for COc1ccc(-c2cc(-c3ccc(Cl)cc3)c(C#N)c(=O)n2CCCCC(=O)Nc2ccccc2N)cc1 ?
Reply: False

Query: Record lookup: outcome of this test for C=CCn1cc(-c2nc3ccccc3s2)c2cc(-c3ccc4c5c(cccc35)C(=O)N(N)C4=O)ccc21 ?
Reply: False

Query: Record lookup: outcome of this test for CCc1ccc(C(=O)/C=C/C23c4ccccc4C(c4ccccc42)C2C(=O)NC(=O)C23)cc1 (centres undefined) ?
Reply: True

Query: Record lookup: outcome of this test for C=CCn1c(SCC(=O)Nc2ccc(C(=O)/C=C/c3cc4cc(OC)ccc4nc3Cl)cc2)nnc1-c1ccc(Br)cc1 ?
Reply: False

Query: Record lookup: outcome of this test for C/C(=C(/c1ccc(Cl)cc1)c1ccc(OCCN2CCCC2)cc1)c1ccc(Cl)cc1 ?
Reply: False

Query: Record lookup: outcome of this test for COc1cccc([C@H]2c3[nH]c4ccccc4c3C[C@H]3C(=O)N(CCCCCCC(=O)NO)CC(=O)N23)c1 ?
Reply: False

Query: Record lookup: outcome of this test for CS(=O)(=O)c1cccc(-c2c(-c3cccc(OS(N)(=O)=O)c3)nc3sccn23)c1 ?
Reply: False

Query: Record lookup: outcome of this test for CCCCCCC1(C)NCCO1 (centres undefined) ?
Reply: False

Query: Record lookup: outcome of this test for Cc1nc2c(=O)[nH]c(SCC(=O)Nc3cccc(F)c3)nc2[nH]c1=O ?
Reply: False

Query: Record lookup: outcome of this test for COC(=O)/C(CCC=C(C)C)=C1\[C@@H](OC(C)=O)C[C@@]2(C)[C@H]1C[C@@H](O)[C@H]1[C@@]3(C)CC[C@H](NCCN)[C@@H](C)[C@@H]3CC[C@@]12C ?
Reply: False

Query: Record lookup: outcome of this test for C#COc1cccc(Nc2ncnc3ncc(NC(=O)CCl)cc23)c1 ?
Reply: True

Query: Record lookup: outcome of this test for COC(=O)c1c2c(c(C)[n+]([O-])c1C)C(=O)C=C(NCc1ccc(OC)cc1)C2=O ?
Reply: True

Query: Record lookup: outcome of this test for O=C(Cn1c2c(c3ccccc31)CCCC2)Nc1ccc(-c2nc3ccccc3s2)cc1 ?
Reply: False

Query: Record lookup: outcome of this test for CN(C)CCCC1(c2ccc(F)cc2)OCc2cc(-c3cccc4[nH]ccc34)ccc21 (centres undefined) ?
Reply: True

Query: Record lookup: outcome of this test for O=C1c2cccnc2C(=O)c2c1c(C(=O)NCCCN1CCCCC1)c1ccccn21 ?
Reply: True

Query: Record lookup: outcome of this test for O=C(/C=C/c1ccccc1)c1cccc(OCCCOc2cccc(C(=O)/C=C/c3ccccc3)c2)c1 ?
Reply: False

Query: Record lookup: outcome of this test for O=C(Cn1cc(CN2C(=O)c3ccccc3S2(=O)=O)nn1)Nc1nc2ccccc2s1 ?
Reply: False

Query: Record lookup: outcome of this test for O=C1Nc2ccc(Br)cc2/C1=N/c1n[nH]c(=S)s1 ?
Reply: False

Query: Record lookup: outcome of this test for COc1ccc(CC(C#N)c2cc3ccccc3[nH]2)cc1 (centres undefined) ?
Reply: False

Query: Record lookup: outcome of this test for Oc1c(Cl)cc(Cl)c2ccc(Cn3cc(-c4cc(C(F)(F)F)cc(C(F)(F)F)c4)nn3)nc12 ?
Reply: False

Query: Record lookup: outcome of this test for N#Cc1cccc(NC(=O)c2oc3ccccc3c2-c2cnn(-c3ccccc3)c2)c1 ?
Reply: False

Query: Record lookup: outcome of this test for COC(=O)c1c2c(c(C)[n+]([O-])c1C)C(=O)C=C(NCc1ccc(Br)cc1)C2=O ?
Reply: True

Query: Record lookup: outcome of this test for O=[N+]([O-])c1ccc(-c2nc(N3CCOCC3)c3c4c(sc3n2)CCCC4)cc1 ?
Reply: False

Query: Record lookup: outcome of this test for N#Cc1cccc(-c2c(-c3ccc4ccccc4c3)oc3ccccc3c2=O)c1 ?
Reply: False

Query: Record lookup: outcome of this test for COc1cc(CNS(=O)(=O)c2ccc(C)cc2)ccc1OCc1cn(-c2ccc(Br)cc2)nn1 ?
Reply: False

Query: Record lookup: outcome of this test for O=C(CSc1nnc2n1S(=O)(=O)c1ccccc1N2c1ccccc1)Nc1nc2ccc(F)cc2s1 ?
Reply: False

Query: Record lookup: outcome of this test for CCC(=C(c1ccc(OCCN2CCCC2)cc1)c1ccc(OCCN2CCCC2)cc1)c1ccc(Cl)cc1 ?
Reply: True

Query: Record lookup: outcome of this test for C#CCOc1ccc2ncnc(Nc3ccc(NC(=O)CCl)cc3)c2c1 ?
Reply: True

Query: Record lookup: outcome of this test for C1=C(N2CCCC2)CCC1 ?
Reply: False

Query: Record lookup: outcome of this test for CCCCOC(=O)OCc1cc(=O)c(O)co1 ?
Reply: False

Query: Record lookup: outcome of this test for Cc1cccc2c1NC(=O)C2(c1ccc(O)cc1)c1ccc(O)cc1 ?
Reply: True

Query: Record lookup: outcome of this test for CN1C(=O)/C(=C/c2ccc(C(=O)Nc3ncc(Cc4ccc(Cl)cc4)s3)cc2)SC1=S ?
Reply: False

Query: Record lookup: outcome of this test for CCOC(=O)C1=C(NC)OCC1=O ?
Reply: False

Query: Record lookup: outcome of this test for COc1ccc(-c2csc(NC(=O)CSc3nc(-c4ccccc4)cc(=O)[nH]3)n2)cc1 ?
Reply: False

Query: Record lookup: outcome of this test for O=C(Nn1c2c(sc1=Nc1ccccc1)C(=O)c1ccccc1C2=O)c1cc2ccc1CCc1ccc(cc1)CC2 ?
Reply: False

Query: Record lookup: outcome of this test for O=C(Nn1c2c(sc1=NCc1ccccc1)C(=O)c1ccccc1C2=O)c1cc2ccc1CCc1ccc(cc1)CC2 ?
Reply: False

Query: Record lookup: outcome of this test for CCNC(=O)c1[nH]cc(-c2ccccc2)c1-c1cc(OC)c2c(c1OC)OCO2 ?
Reply: False

Query: Record lookup: outcome of this test for CN(C)CCCC1(c2ccc(F)cc2)OCc2cc(-c3cncc4ccccc34)ccc21 (centres undefined) ?
Reply: False

Query: Record lookup: outcome of this test for CCOC(=O)c1ccc2[nH]c(O)c(C(=Nc3ccc(N(C)C(=O)CN4CCN(C)CC4)cc3)c3ccccc3)c2c1 ?
Reply: True
